molecular target: human IL-6 (human, UniProt P05231 30-212); experiment: SPR (Biacore), supernatant antibody on Protein A chip, IL-6 flowed, 37 C
Sequence (P05231 30-212 limits assumed): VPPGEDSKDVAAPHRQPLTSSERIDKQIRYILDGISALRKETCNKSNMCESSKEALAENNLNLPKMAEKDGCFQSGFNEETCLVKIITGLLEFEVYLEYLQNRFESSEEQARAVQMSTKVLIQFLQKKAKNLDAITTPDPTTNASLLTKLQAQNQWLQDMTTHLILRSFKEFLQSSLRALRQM
property: log10 kon (log10 of the value in M⁻¹ s⁻¹)
In plain terms, each number is the log10 of measured kon in M⁻¹ s⁻¹.

binder	reported.result
anti-IL-6 antibody, heavy chain T65W, G66D / light chain M32L, M50D, N52S, M88Q (antibody, human IgG1, V domains shown, Human IgG1) VH: EVQLVESGGGLVQPGGSLRLSCAASGFTFSPFAMSWVRQAPGKGLEWVAKISPGGSWTYYSDTVWDRFTFSLDTSKSTAYLQMNSLRAEDTAVYYCARQLWGYYALDIWGQGTLVTVSS VL: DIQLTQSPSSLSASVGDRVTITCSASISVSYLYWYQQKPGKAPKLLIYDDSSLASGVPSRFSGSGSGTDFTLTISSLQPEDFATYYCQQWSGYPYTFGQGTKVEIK	6.08
anti-IL-6 antibody, heavy chain S35A, G66D / light chain M32L, M50D, N52S, M88Q (antibody, human IgG1, V domains shown, Human IgG1) VH: EVQLVESGGGLVQPGGSLRLSCAASGFTFSPFAMAWVRQAPGKGLEWVAKISPGGSWTYYSDTVTDRFTFSLDTSKSTAYLQMNSLRAEDTAVYYCARQLWGYYALDIWGQGTLVTVSS VL: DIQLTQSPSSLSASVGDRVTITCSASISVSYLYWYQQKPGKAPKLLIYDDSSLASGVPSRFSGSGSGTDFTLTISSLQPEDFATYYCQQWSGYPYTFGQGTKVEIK	6.29
anti-IL-6 antibody, heavy chain I51S, G66D / light chain M32L, M50D, N52S, M88Q (antibody, human IgG1, V domains shown, Human IgG1) VH: EVQLVESGGGLVQPGGSLRLSCAASGFTFSPFAMSWVRQAPGKGLEWVAKSSPGGSWTYYSDTVTDRFTFSLDTSKSTAYLQMNSLRAEDTAVYYCARQLWGYYALDIWGQGTLVTVSS VL: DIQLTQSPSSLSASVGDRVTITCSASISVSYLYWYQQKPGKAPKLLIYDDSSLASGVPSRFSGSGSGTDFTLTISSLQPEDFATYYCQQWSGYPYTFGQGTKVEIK	6.27
anti-IL-6 antibody, heavy chain S35W, G66D / light chain M32L, M50D, N52S, M88Q (antibody, human IgG1, V domains shown, Human IgG1) VH: EVQLVESGGGLVQPGGSLRLSCAASGFTFSPFAMWWVRQAPGKGLEWVAKISPGGSWTYYSDTVTDRFTFSLDTSKSTAYLQMNSLRAEDTAVYYCARQLWGYYALDIWGQGTLVTVSS VL: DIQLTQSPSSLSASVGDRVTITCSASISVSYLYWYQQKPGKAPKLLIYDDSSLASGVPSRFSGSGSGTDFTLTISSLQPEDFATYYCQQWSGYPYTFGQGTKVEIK	5.23
anti-IL-6 antibody, heavy chain T65E, G66D / light chain M32L, M50D, N52S, M88Q (antibody, human IgG1, V domains shown, Human IgG1) VH: EVQLVESGGGLVQPGGSLRLSCAASGFTFSPFAMSWVRQAPGKGLEWVAKISPGGSWTYYSDTVEDRFTFSLDTSKSTAYLQMNSLRAEDTAVYYCARQLWGYYALDIWGQGTLVTVSS VL: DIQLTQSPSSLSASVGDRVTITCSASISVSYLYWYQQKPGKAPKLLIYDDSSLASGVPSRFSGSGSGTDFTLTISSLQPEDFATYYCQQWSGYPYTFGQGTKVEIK	6.23

Request the reported log10 kon associated with anti-IL-6 antibody, heavy chain T65L, G66D / light chain M32L, M50D, N52S, M88Q (antibody, human IgG1, V domains shown, Human IgG1) VH: EVQLVESGGGLVQPGGSLRLSCAASGFTFSPFAMSWVRQAPGKGLEWVAKISPGGSWTYYSDTVLDRFTFSLDTSKSTAYLQMNSLRAEDTAVYYCARQLWGYYALDIWGQGTLVTVSS VL: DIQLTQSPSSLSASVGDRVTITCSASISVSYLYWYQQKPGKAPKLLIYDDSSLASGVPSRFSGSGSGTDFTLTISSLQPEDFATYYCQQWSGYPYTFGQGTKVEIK
6.18

Which log10 kon reading was recorded for the binder anti-IL-6 antibody, heavy chain S35I, G66D / light chain M32L, M50D, N52S, M88Q (antibody, human IgG1, V domains shown, Human IgG1) VH: EVQLVESGGGLVQPGGSLRLSCAASGFTFSPFAMIWVRQAPGKGLEWVAKISPGGSWTYYSDTVTDRFTFSLDTSKSTAYLQMNSLRAEDTAVYYCARQLWGYYALDIWGQGTLVTVSS VL: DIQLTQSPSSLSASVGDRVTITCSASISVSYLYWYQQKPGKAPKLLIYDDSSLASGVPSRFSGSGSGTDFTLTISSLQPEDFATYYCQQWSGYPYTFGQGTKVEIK ?
5.96

Request the reported log10 kon associated with anti-IL-6 antibody, heavy chain T63A, G66D / light chain M32L, M50D, N52S, M88Q (antibody, human IgG1, V domains shown, Human IgG1) VH: EVQLVESGGGLVQPGGSLRLSCAASGFTFSPFAMSWVRQAPGKGLEWVAKISPGGSWTYYSDAVTDRFTFSLDTSKSTAYLQMNSLRAEDTAVYYCARQLWGYYALDIWGQGTLVTVSS VL: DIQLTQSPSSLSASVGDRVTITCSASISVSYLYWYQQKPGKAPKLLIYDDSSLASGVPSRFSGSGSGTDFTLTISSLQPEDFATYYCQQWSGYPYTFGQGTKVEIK
6.23

Please give the measured log10 kon for this binder: anti-IL-6 antibody, heavy chain T63F, G66D / light chain M32L, M50D, N52S, M88Q (antibody, human IgG1, V domains shown, Human IgG1) VH: EVQLVESGGGLVQPGGSLRLSCAASGFTFSPFAMSWVRQAPGKGLEWVAKISPGGSWTYYSDFVTDRFTFSLDTSKSTAYLQMNSLRAEDTAVYYCARQLWGYYALDIWGQGTLVTVSS VL: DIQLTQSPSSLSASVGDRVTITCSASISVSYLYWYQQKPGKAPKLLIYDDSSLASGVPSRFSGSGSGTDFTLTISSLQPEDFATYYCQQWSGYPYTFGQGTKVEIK
6.22

Requested field: log10 kon. Item: anti-IL-6 antibody, heavy chain WT / light chain M32L, M50D, N52S, M88Q (antibody, human IgG1, V domains shown, Human IgG1) VH: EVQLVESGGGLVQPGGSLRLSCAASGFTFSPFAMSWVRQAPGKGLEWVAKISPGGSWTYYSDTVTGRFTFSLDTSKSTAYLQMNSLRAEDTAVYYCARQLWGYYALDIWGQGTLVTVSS VL: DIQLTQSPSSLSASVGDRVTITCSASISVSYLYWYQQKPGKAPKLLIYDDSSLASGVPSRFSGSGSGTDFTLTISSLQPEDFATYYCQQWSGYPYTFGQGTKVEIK
5.83
